Experiment: Oral bioavailability in ICR mouse at 20 mg/kg measured up to 48 hrs by LC-MS/MS analysis
Format: ADME, organism-based
Details: in vivo
Measure: bioavailability

Molecule	Measure	Value
C=CC(=O)Nc1ccc2[nH]c(=O)n(C3CCN(Cc4ccc(-c5nc6cc[nH]c(=O)c6cc5-c5ccccc5)cc4)CC3)c2c1 [Borussertib]	bioavailability	< 5%

###

Assay: Oral absorption in C57BL/6J mouse at 20 mg/kg measured up to 48 hrs by LC-MS/MS analysis
Assay type: ADME, organism-based
Settings: in vivo

Compound	Unit Spec	Fa at 48 h
C=CC(=O)Nc1ccc2[nH]c(=O)n(C3CCN(Cc4ccc(-c5nc6cc[nH]c(=O)c6cc5-c5ccccc5)cc4)CC3)c2c1 [Borussertib]	%	39.6
